# Experimental target: Cbl-b (Homo sapiens (Human), UniProt Q13191)
# Sequence (Q13191 40-426): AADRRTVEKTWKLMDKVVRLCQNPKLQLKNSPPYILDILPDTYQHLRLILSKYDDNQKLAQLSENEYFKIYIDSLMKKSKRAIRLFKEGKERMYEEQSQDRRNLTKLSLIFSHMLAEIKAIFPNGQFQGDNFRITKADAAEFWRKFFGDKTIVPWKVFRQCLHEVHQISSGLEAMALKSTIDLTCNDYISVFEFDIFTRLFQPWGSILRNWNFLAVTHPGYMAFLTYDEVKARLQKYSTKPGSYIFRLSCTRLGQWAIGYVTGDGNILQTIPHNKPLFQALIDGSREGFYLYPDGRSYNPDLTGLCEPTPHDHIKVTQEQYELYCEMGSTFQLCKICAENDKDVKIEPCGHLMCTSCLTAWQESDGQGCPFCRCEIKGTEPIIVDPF
# Assay details: Cbl-b LCK Ub TR-FRET assay (Cbl-b Lck HTRF)
# Type: biochemical
Measurement name: IC50 (nM)

The following molecules have reported results that may help.
• Cn1cnnc1[C@H](F)C1(c2cccc(N3Cc4c(cc(CN5CC(C)(CF)C5)cc4C(F)(F)F)C3=O)c2)COC1 = 52
• Cn1cnnc1[C@H](F)C1(c2cccc(N3Cc4c(cc(CN5CC(S(C)(=O)=O)C5)cc4C(F)(F)F)C3=O)c2)COC1 = 130

A = CC(C)CNCc1cc2c(c(C(F)(F)F)c1)CN(c1cccc(C3([C@@H](F)c4nncn4C)CC(F)(F)C3)c1)C2=O
B = CC[C@H]1CC[C@@H](c2cc3c(c(C(F)(F)F)c2)CN(c2cccc(C4(Cc5nncn5C)CC(F)(F)C4)c2)C3=O)N1
C = COCC1CCN(Cc2cc3c(c(C(F)(F)F)c2)CN(c2cccc(C4([C@@H](F)c5nncn5C)COC4)c2)C3=O)CC1
D = CCc1cccc2c1CN(c1cccc(C3([C@@H](F)c4nncn4C)COC3)c1)C2=O
Challenge: Please give the order of these molecules when sorted by IC50, largest value leading. The labels, placed in the requested order, form the answer.
Response given: D, C, B, A

====

# Experimental target: Cbl-b (Homo sapiens (Human))
# Assay details: Cbl-b LCK Ub TR-FRET assay (Cbl-b Lck HTRF)
# Type: biochemical
Counter-ions that a name gives are not always drawn.
Measurement name: IC50 (nM)

* Cn1cnnc1CC1(c2cccc(N3Cc4c(cc(CNCC5COC(C)(C)O5)cc4C(F)(F)F)C3=O)c2)CC(F)(F)C1 (stereo not drawn) [Compound 357, formate] | 38

A = CC(C)[C@H]1CN(Cc2cc3c(c(C(F)(F)F)c2)CN(c2cccc(C4(Cc5nncn5C)CC(F)(F)C4)c2)C3=O)CCN1
B = Cn1cnnc1CC1(c2cccc(N3Cc4c(cc(CN)cc4C(F)(F)F)C3=O)c2)CC(F)(F)C1
Challenge: Looking only at measured IC50, which entry is lower, A or B ? In your reply, give the label of the chosen option.
Response given: A
(A: 26 nM, B: 39 nM)

====

# Experimental target: c-Cbl (Homo sapiens (Human))
# Sequence (P22681 47-435): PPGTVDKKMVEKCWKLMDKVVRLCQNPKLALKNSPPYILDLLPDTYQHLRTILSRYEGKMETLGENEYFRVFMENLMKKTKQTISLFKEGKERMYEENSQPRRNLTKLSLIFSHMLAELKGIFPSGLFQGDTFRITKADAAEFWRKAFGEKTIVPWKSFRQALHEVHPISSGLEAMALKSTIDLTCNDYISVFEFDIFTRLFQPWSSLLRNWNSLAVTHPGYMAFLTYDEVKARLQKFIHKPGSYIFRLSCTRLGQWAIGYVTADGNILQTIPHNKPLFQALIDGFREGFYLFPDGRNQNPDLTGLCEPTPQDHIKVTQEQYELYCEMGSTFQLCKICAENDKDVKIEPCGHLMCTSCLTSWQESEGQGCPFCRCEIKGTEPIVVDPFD
# Assay details: C-Cbl LCK Ub TR-FRET assay (c-cbl Lck HTRF)
# Assay type: biochemical
# Procedure: 6 μL of detection mixture was added to all wells and briefly centrifuged before incubating for 20 min at room temperature. […] IC50 was generated using no LCK as the low control and DMSO as the high control.
Measurement name: IC50 (nM)

1 = COC1(C)CN(Cc2cc3c(c(C(F)(F)F)c2)CN(c2cccc(C4([C@@H](F)c5nncn5C)COC4)c2)C3=O)C1 [Compound 179]
2 = Cn1cnnc1[C@@H](F)C1(c2cccc(N3Cc4c(cc(CN5CC6(CCO6)C5)cc4C(F)(F)F)C3=O)c2)COC1 [Compound 140]
3 = CC(C)[C@H]1CN(C2COC2)CCN1Cc1cc2c(c(C(F)(F)F)c1)CN(c1cccc(C3([C@@H](F)c4nncn4C)COC3)c1)C2=O [Compound 200]
Challenge: Hey, quick one: sort these by IC50, largest value first please. The labels, placed in the requested order, form the answer.
Response given: 2, 1, 3
(2: 970 nM, 1: 110 nM, 3: 39 nM)
